methodNotes: self-splicing fitness, log relative to wild type (ln ratio); higher = more splicing; Tetrahymena group I intron in knt gene, E. coli kanamycin selection, DiMSum; sequences stand for … in CUCUCU…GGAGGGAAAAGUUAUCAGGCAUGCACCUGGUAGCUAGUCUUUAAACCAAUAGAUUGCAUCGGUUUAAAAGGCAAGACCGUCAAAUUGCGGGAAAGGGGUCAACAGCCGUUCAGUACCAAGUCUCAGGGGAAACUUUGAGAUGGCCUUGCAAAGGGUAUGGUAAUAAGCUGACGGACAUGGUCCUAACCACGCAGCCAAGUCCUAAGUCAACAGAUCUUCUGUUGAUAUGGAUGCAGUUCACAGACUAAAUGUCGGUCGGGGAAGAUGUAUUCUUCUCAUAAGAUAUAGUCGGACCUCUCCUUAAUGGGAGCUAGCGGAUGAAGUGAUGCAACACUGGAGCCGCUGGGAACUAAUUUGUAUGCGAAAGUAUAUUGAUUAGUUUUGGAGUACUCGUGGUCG;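 further: selection with 25 µg/mL kanamycin versus none on LB agar overnight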
setupConditions: 30 °C
Entry flag: rule met if self-splicing fitness (ln) reaches -2; rule not met if it does not.

Could you verify whether the entry ACAGAGCAAUAUUACGGCCA shows self-splicing fitness (ln) of no less than -2?
rule not met

Could you verify whether the entry ACUAAGCAAUAUUACGUCAA shows self-splicing fitness (ln) of no less than -2?
rule not met

Could you verify whether the entry AGAGAGCAAUAUUACGUCUU shows self-splicing fitness (ln) of no less than -2?
rule not met

Could you verify whether the entry AUGUAGCAAUAUUACGACAG shows self-splicing fitness (ln) of no less than -2?
rule met

Could you verify whether the entry CGUUAGCAAUAUUACGCCGC shows self-splicing fitness (ln) of no less than -2?
rule not met

Could you verify whether the entry CUAGAGCAAUAUUACGGACG shows self-splicing fitness (ln) of no less than -2?
rule met

Could you verify whether the entry UUCUAGCAAUAUUACGGGAU shows self-splicing fitness (ln) of no less than -2?
rule not met

Could you verify whether the entry UCGCAGCAAUAUUACGCUAU shows self-splicing fitness (ln) of no less than -2?
rule not met

---

methodNotes: self-splicing fitness, log relative to wild type (ln ratio); higher = more splicing; Tetrahymena group I intron in knt gene, E. coli kanamycin selection, DiMSum; sequences stand for … in CUCUCU…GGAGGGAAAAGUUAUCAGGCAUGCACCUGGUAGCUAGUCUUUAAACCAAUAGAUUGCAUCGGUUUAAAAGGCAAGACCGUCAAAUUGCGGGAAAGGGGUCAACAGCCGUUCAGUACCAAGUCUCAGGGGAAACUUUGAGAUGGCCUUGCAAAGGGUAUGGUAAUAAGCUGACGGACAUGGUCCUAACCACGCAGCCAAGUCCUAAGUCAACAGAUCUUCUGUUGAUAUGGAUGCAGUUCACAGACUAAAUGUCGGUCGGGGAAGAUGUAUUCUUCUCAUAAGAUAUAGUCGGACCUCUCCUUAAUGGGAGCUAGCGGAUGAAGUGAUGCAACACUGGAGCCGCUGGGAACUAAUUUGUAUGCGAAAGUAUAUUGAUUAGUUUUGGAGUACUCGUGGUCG
setupConditions: 37 °C
propertyMeasured: self-splicing fitness (ln)
// keep it numeric: no unit symbol after the value

Any idea what self-splicing fitness (ln) was measured for GUAUAGCAAUAUUACGUACU ?
-2.05

Any idea what self-splicing fitness (ln) was measured for GGUAAGCAAUAUUACGACCG ?
0.0485

Any idea what self-splicing fitness (ln) was measured for UCAGAGCAAUAUUACGGUGC ?
-0.485

Any idea what self-splicing fitness (ln) was measured for UCCUAGCAAUAUUACGGAGG ?
-1.73

Any idea what self-splicing fitness (ln) was measured for GGAGAGCAAUAUUACGGAGG ?
-0.819

Any idea what self-splicing fitness (ln) was measured for CAUCAGCAAUAUUACGGCCG ?
-0.0546

Any idea what self-splicing fitness (ln) was measured for UGGGAGCAAUAUUACGCUAU ?
-2.62

Any idea what self-splicing fitness (ln) was measured for GGCUAGCAAUAUUACGACGC ?
0.803
